// cross-study collection: IC50 for SIK3 (Homo sapiens, UniProt Q9Y2K2)
MEASUREMENT_KIND: IC50 (nM)

>  <COMPOUND>
Cc1ccc(Nc2ccc3c(c2)ncn3-c2ccc(C(C)O)c(-c3cnn(CC(F)(F)F)c3C)n2)nn1 (centres unmarked)

>  <MEASURE_UNIT>
nM

>  <IC50>
0.2

$$$$
>  <COMPOUND>
Cc1ccc(Nc2ccc3c(c2)ncn3-c2ccc(C(C)O)c(N3CC4CC3CC4(F)F)n2)nn1 (centres unmarked)

>  <MEASURE_UNIT>
nM

>  <IC50>
2.4

$$$$

(P) CSc1cc(-c2cnc3ccccn23)cc(OC[C@@]2(N)CCC(F)(F)C2)c1C#N (mixture of isomers)
(Q) Cc1ccc(Nc2ccc3ncn(-c4ccc(C=O)c(N5C[C@H](C#N)C[C@@H]5C)n4)c3c2)nn1
(R) Cc1ccc(Nc2cc3c(cc2F)ncn3-c2ccc(C(C)O)c(-n3nc(C#N)cc3C)n2)nn1 (centres unmarked)
(S) Cc1ccc(Nc2cc3ncn(-c4ccc([C@H](C)O)c(-n5nc(OC(F)F)cc5C)n4)c3cc2OC2COC2)nn1
Rank the 4 compounds: largest IC50 first, smallest last. Form entry: labels listed in requested order.
Q, R, P, S
(Q: 988 nM, R: 54.9 nM, P: 5.3 nM, S: 0.5 nM)

(I) Cc1ccc(Nc2ccc3c(c2)ncn3-c2ccc(C(C)O)c(-c3cc(C#N)n(C)n3)n2)nn1 (centres unmarked)
(II) Cc1cc(C#N)nn1-c1nc(-n2cnc3ccc(N4CCCC45COC5)cc32)ccc1C(C)O (centres unmarked)
Between the entries labeled I and II , whose measured IC50 is lower? State the label of the item chosen.
I

(a) Cc1ccc(Nc2ccc3c(c2)ncn3-c2ccc(C(C)O)c(-c3nn(CC(F)(F)F)cc3C)n2)nn1 (centres unmarked)
(b) Cc1ccc(Nc2ccc3c(c2)ncn3-c2ccc(C(C)O)c(-c3cc(F)cnc3Cl)n2)nn1 (centres unmarked)
(c) Cc1ccc(Nc2ccc3c(c2)ncn3-c2ccc(C(C)O)c(-c3nnn(CC(F)(F)F)c3C)n2)nn1 (centres unmarked)
(d) Cc1ccc(Nc2ccc3ncn(-c4ccc(C(C)O)c(-n5cc(C)c(C#N)n5)n4)c3c2)nn1 (centres unmarked)
Exam item: list the entries in increasing order of IC50. # the answer lists labels in the order requested
c, a, b, d
(c: 0.3 nM, a: 6.6 nM, b: 29 nM, d: 85.2 nM)

(I) Cc1ccc(Nc2ccc3c(c2)ncn3-c2ccc(C(C)O)c(-n3nc(C)cc3C)n2)nn1 (centres unmarked)
(II) Cc1cc(C#N)nn1-c1nc(-n2cnc3cc(N[C@H]4CNC[C@H]4F)c(F)cc32)ccc1C(C)O (some centres unmarked)
Smaller IC50 value, I vs II ? Refer to your chosen item by its label in the answer.
I

###

From various publications: pIC50 for SIK3 (Homo sapiens, UniProt Q9Y2K2).
pIC50: −log10 of the molar value.
MEASUREMENT_KIND: pIC50

Example entries and their recorded answers appear below.
>  <COMPOUND>
Cc1ccc(Nc2ccc3c(c2)ncn3-c2ccc(C(C)O)c(-c3cc(C(F)(F)F)nn3C)n2)nn1 (stereo not drawn)

>  <pIC50>
8.16

$$$$
>  <COMPOUND>
CC(O)c1ccc(-n2cnc3cc(OCCN4CCOCC4)ccc32)nc1Oc1ccccc1 (stereo not drawn)

>  <pIC50>
6.39

$$$$
>  <COMPOUND>
CC(=O)c1ccc(-n2cnc3cc(Nc4ccc(C5CCCN5)nn4)ccc32)nc1-n1nc(C#N)cc1C (stereo not drawn)

>  <pIC50>
6.14

$$$$
>  <COMPOUND>
CC[C@@H]1CCC[C@@]1(N)COc1cc(-c2cnc3cccc(OC)n23)cc(OC)c1C#N

>  <pIC50>
8.70

$$$$
>  <COMPOUND>
CSc1cc(-c2cnc3cccc(C#N)n23)cc(OCC2(N)CCCC2)c1C#N

>  <pIC50>
8.68

$$$$

(P) CSc1cc(-c2cnc3ccc(N4CCC4)c(C#N)n23)cc(OCC2(N)CCCC2)c1C#N
(Q) Cc1cc(S(C)(=O)=O)c(Nc2ccc3c(c2)ncn3-c2ccc(C(C)O)c(-n3nc(C#N)cc3C)n2)nn1 (stereo not drawn)
(R) Cc1ccc(Nc2cc3ncn(-c4ccc(C(C)O)c(-n5nc(C#N)cc5C)n4)c3cc2F)nn1 (stereo not drawn)
(S) Cc1cc(C#N)nn1-c1nc(-n2cnc3cc(CN4CCCCC4=O)ccc32)ccc1C(C)O (stereo not drawn)
(T) Cc1ccc(Nc2ccc3c(c2)ncn3-c2ccc(C(C)O)c(N(C)CC3(C#N)CC3)n2)nn1 (stereo not drawn)
Rank entries according to their pIC50, from the largest number down. Your task in answering is to list the labels in the requested order.
R, P, Q, T, S
